meta.source: patent US5656591A

MIC values by entry
Test system: Escherichia coli 0-111
Protocol Text: Test for antimicrobial activity (turbidity): growth inhibiting concentration of antibiotics
Type: cell-based
Applied Conditions: Escherichia coli, 0111, antimicrobial peptide (Seq. ID No. 27) 256 μg/ml

Query: Suppose we examine the molecule O=C(N[C@H](CO)[C@H](O)c1ccc([N+](=O)[O-])cc1)C(Cl)Cl [chloramphenicol] ; what MIC value has been reported?
Result: 0.1 µg/mL

***
Query: Given [H]/N=C(/N)N[C@H]1[C@H](O)[C@@H](O)[C@H](O[C@@H]2O[C@@H](C)[C@](O)(C=O)[C@H]2O[C@@H]2O[C@@H](CO)[C@H](O)[C@@H](O)[C@@H]2NC)[C@@H](N/C(N)=N\[H])[C@@H]1O [streptomycin] , state its recorded MIC.
Result: 0.01 µg/mL

Query: I would be grateful if you could share the reported MIC for COc1cccc(OC)c1C(=O)N[C@@H]1C(=O)N2[C@@H]1SC(C)(C)[C@@H]2C(=O)O [staphcillin] .
Result: 0.01 µg/mL

Query: Please look up its MIC: CC[C@H]1OC(=O)[C@H](C)[C@@H](O[C@H]2C[C@@](C)(OC)[C@@H](O)[C@H](C)O2)[C@H](C)[C@@H](O[C@@H]2O[C@H](C)C[C@H](N(C)C)[C@H]2O)[C@](C)(O)C[C@@H](C)C(=O)[C@H](C)[C@@H](O)[C@]1(C)O [erythromycin]
Result: 0.01 µg/mL
